Target: EGFR L858R (Homo sapiens (Human), UniProt P00533, L858R)
Sequence (P00533 25-1210 L858R): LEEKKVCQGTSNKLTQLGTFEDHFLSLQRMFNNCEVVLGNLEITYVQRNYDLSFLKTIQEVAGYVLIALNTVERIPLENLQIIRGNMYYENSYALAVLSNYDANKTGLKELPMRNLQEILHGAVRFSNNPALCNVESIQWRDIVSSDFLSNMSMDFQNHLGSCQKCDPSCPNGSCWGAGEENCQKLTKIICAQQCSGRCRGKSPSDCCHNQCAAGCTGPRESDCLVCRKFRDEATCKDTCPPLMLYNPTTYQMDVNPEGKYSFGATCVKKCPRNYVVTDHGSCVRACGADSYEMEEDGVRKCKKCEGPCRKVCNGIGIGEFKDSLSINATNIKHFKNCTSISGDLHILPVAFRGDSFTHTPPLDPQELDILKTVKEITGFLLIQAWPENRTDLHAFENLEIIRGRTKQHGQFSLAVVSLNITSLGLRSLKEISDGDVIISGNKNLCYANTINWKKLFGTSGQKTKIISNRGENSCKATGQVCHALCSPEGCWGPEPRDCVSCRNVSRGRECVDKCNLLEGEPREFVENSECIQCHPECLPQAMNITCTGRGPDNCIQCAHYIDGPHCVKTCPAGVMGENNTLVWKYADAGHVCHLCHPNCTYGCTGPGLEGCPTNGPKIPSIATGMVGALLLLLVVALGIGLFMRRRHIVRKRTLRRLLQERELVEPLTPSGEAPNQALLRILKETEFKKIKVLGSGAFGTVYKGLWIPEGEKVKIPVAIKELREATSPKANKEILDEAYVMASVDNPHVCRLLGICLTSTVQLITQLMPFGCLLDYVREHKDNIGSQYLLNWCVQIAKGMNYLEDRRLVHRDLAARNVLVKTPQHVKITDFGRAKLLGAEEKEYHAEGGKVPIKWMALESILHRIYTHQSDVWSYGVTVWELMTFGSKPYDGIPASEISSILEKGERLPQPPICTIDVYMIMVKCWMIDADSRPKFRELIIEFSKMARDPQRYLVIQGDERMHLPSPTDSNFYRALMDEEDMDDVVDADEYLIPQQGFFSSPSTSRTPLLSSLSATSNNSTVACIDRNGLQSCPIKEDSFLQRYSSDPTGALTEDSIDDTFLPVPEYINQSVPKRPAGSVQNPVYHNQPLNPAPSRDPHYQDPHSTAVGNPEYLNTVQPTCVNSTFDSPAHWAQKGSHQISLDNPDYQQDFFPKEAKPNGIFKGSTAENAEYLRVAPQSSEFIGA
Assay: Biochemical EGFR inhibition assay, EGFR L858R
Settings: Caliper mobility shift; 1.0 mM ATP or ATP Km; read-out: Enz EGFR_L858R IC50
test.readout: IC50 (nM)

Use these answered entries as a reference point.
{"compound": "CCC(=O)Nc1cc2c(-c3cn(C)nc3-c3ccccc3)ncnc2cc1OC", "assay.target": "EGFR L858R (Homo sapiens (Human), UniProt P00533, L858R)", "IC50 (nM)": 2.1}
{"compound": "COc1cc2ncnc(-c3cn(C)nc3-c3ccccc3)c2cc1NC(=O)c1cnn(C(F)(F)F)c1C", "assay.target": "EGFR L858R (Homo sapiens (Human), UniProt P00533, L858R)", "IC50 (nM)": 1.9}
{"compound": "COc1cc2ncnc(-c3cn(C)nc3-c3ccccc3)c2cc1-c1cnn(CCN(C)C)c1", "assay.target": "EGFR L858R (Homo sapiens (Human), UniProt P00533, L858R)", "IC50 (nM)": 2.9}
{"compound": "CCOc1cc2ncnc(-c3cn(C)nc3-c3ccccc3)c2cc1NC(=O)c1cnn(CC)c1", "assay.target": "EGFR L858R (Homo sapiens (Human), UniProt P00533, L858R)", "IC50 (nM)": 1.6}
{"compound": "COc1cc2ncnc(-c3cn(C)nc3-c3ccccc3)c2cc1NC(=O)[C@@H](C)CN(C)C (single isomer, unassigned)", "assay.target": "EGFR L858R (Homo sapiens (Human), UniProt P00533, L858R)", "IC50 (nM)": 12}

P = COc1cc2ncnc(-c3cn(C)nc3-c3ccccc3)c2nc1NC(=O)[C@@]12CN(C)C[C@@H]1C2(F)F (single isomer, unassigned)
Q = COc1cc2ncnc(-c3cn(C)nc3-c3ccccc3)c2nc1NC(=O)[C@@]1(C)CCCO1
Exam item: For P and Q , which recorded IC50 is lower? Reply briefly: the label of your chosen item.
Marked response: P
(P: 1.5 nM, Q: 5.4 nM)

a = CCOc1cc2ncnc(-c3cn(C4CC4)nc3-c3ccccc3)c2cc1CO
b = COc1cc2ncnc(-c3cn(C)nc3-c3ccccc3)c2nc1NC(=O)c1cnc(C2CC2)s1
Exam item: For a and b , which recorded IC50 is lower? Reply briefly: the label of your chosen item.
Marked response: b

a = CCn1cc(-c2ncnc3cc(OC)c([C@@H](C)O)cc23)c(-c2ccccc2)n1 (single isomer, unassigned)
b = COc1cc2ncnc(-c3cn(C)nc3-c3ccccc3)c2cc1NC(=O)[C@H]1CCN(C)C[C@@H]1F
c = CN1CC[C@@H](Oc2cc3c(-c4cn(C)nc4-c4ccccc4)ncnc3cc2OC2CC2)[C@H](F)C1
Exam item: list the entries in increasing order of IC50. When ranking, write the labels in the order the request describes.
Marked response: b, a, c
(b: 1.3 nM, a: 3.4 nM, c: 5.4 nM)

1 = COCC1(C(=O)Nc2cc3c(-c4cn(C)nc4-c4ccccc4)ncnc3cc2OC)CCC1
2 = COc1cc2ncnc(-c3c[nH]nc3-c3ccccc3)c2cc1[C@H]1CCCCO1 (single isomer, unassigned)
3 = COc1cc2ncnc(-c3cn(C)nc3-c3ccccc3)c2cc1OC1CCOC1 (stereo not drawn)
4 = CCn1cc([C@H](C)Oc2nc3c(-c4cn(C)nc4-c4ccccc4)ncnc3cc2OC)nn1
Exam item: list the entries in increasing order of IC50. When ranking, write the labels in the order the request describes.
Marked response: 2, 1, 3, 4

###

Target: EGFR L858R (Homo sapiens (Human), UniProt P00533, L858R)
Assay: Biochemical EGFR inhibition assay, EGFR L858R
Conditions: Caliper mobility shift; 1.0 mM ATP or ATP Km; read-out: Enz EGFR_L858R IC50
test.readout: IC50 (nM)

Use these answered entries as a reference point.
{"compound": "Cn1cc(-c2ccc3c(-c4c[nH]nc4-c4ccccc4F)ncnc3c2)cn1 [Example 443]", "IC50 (nM)": 0.8}
{"compound": "COc1cc2ncnc(-c3cn(C)nc3-c3ccccc3F)c2nc1NC(=O)C1(C(F)(F)F)CC1 [Example 317]", "IC50 (nM)": 2.7}
{"compound": "COc1cc2ncnc(-c3cn(C)nc3-c3ccccc3)c2cc1-c1cccc2[nH]ncc12 [Example 143]", "IC50 (nM)": 4.5}
{"compound": "COc1cc2ncnc(-c3cn(C)nc3-c3ccccc3)c2nc1O[C@H](C)c1cccnc1F [Example 48]", "IC50 (nM)": 1.8}
{"compound": "CCOc1cc2ncnc(-c3cn(CC(F)F)nc3-c3ccccc3)c2cc1OC [Example 19]", "IC50 (nM)": 1.6}

I = COc1cc2ncnc(-c3cn(C)nc3-c3ccccc3)c2cc1NC(=O)C1CC1 [Example 344]
II = COc1cc2ncnc(-c3cn(C)nc3-c3ccccc3)c2cc1NC(=O)N1CCOC(C)(C)C1 [Example 184]
III = CCn1cc([C@@H](C)Oc2nc3c(-c4cn(C)nc4-c4ccccc4)ncnc3cc2OC)nn1 [Example 35]
Exam item: list the entries in increasing order of IC50. When ranking, write the labels in the order the request describes.
Marked response: I, III, II

###

Target: EGFR L858R (Homo sapiens (Human), UniProt P00533, L858R)
Experiment: Biochemical EGFR inhibition assay, EGFR L858R
Conditions: Caliper mobility shift; 1.0 mM ATP or ATP Km; read-out: Enz EGFR_L858R IC50
pIC50: −log10 of the molar value.
test.readout: pIC50

{"compound": "CCn1cc(-c2ncnc3cc(OC)c(NC(=O)[C@]45COC[C@H]4C5)nc23)c(-c2ccccc2)n1 (single isomer, unassigned) [Example 388]", "assay.target": "EGFR L858R (Homo sapiens (Human), UniProt P00533, L858R)", "pIC50": 8.32}

1 = COc1cc2ncnc(-c3cn(CC(F)F)nc3-c3ccccc3)c2cc1NC(=O)[C@@]12COC[C@@H]1C2 [Example 276]
2 = COc1cc2ncnc(-c3cn(C(F)(F)F)nc3-c3ccccc3)c2cc1NC(=O)C12CC(C1)C2 [Example 484]
3 = COc1cc2ncnc(-c3cn(C)nc3-c3ccccc3)c2cc1NC(=O)[C@H](C)CN(C)C (single isomer, unassigned) [Example 239]
Exam item: Parameters: sort_field (pIC50), sort_dir (desc). When ranking, write the labels in the order the request describes.
Marked response: 1, 3, 2
(1: 8.70, 3: 8.39, 2: 7.31)

a = COc1cc2ncnc(-c3cn(C)nc3-c3ccccc3)c2cc1NC(=O)[C@@H]1CCN(C)C[C@H]1F (racemic) [Example 339]
b = COc1cc2ncnc(-c3cn(C)nc3-c3ccccc3)c2cc1[C@H]1CN(C)CCO1 (single isomer, unassigned) [Example 129]
c = COc1cc2ncnc(-c3cn(C)nc3-c3ccccc3)c2nc1NC(=O)c1ccc(F)cc1 [Example 312]
d = COc1cc2ncnc(-c3cn(C)nc3-c3ccccc3)c2nc1O[C@H](C)c1ncsc1C (single isomer, unassigned) [Example 53]
Exam item: Parameters: sort_field (pIC50), sort_dir (desc). When ranking, write the labels in the order the request describes.
Marked response: a, b, c, d

###

Biological target: EGFR L858R (Homo sapiens (Human), UniProt P00533, L858R)
Experiment: Biochemical EGFR inhibition assay, EGFR L858R
Settings: Caliper mobility shift; 1.0 mM ATP or ATP Km; read-out: Enz EGFR_L858R IC50
test.readout: IC50 (nM)

{"molecule": "COc1cc2ncnc(-c3cn(C)nc3-c3ccccc3)c2cc1OC(=O)N1CCO[C@@H]2C[C@@H]21 (racemic) [Example 83]", "measured.number": 3}

a = COc1cc2ncnc(-c3cn(C)nc3-c3ccccc3)c2nc1O[C@@H](C)c1nnnn1C [Example 45]
b = COc1cc2ncnc(-c3cn(C)nc3-c3ccccc3)c2cc1NC(=O)c1ccc(F)cn1 [Example 324]
c = COc1cc2ncnc(-c3cn(C)nc3-c3ccccc3)c2nc1OC(C)c1cocn1 (stereo not drawn) [Example 28]
d = COc1cc2ncnc(-c3cn(C)nc3-c3ccc(F)cc3)c2nc1NC(=O)[C@@]12COC[C@@H]1C2 (single isomer, unassigned) [Example 382]
Exam item: list the entries in increasing order of IC50. When ranking, write the labels in the order the request describes.
Marked response: c, d, b, a
(c: 1.2 nM, d: 2.4 nM, b: 3.8 nM, a: 9.4 nM)

P = COc1cc2ncnc(-c3cn(C)nc3-c3ccccc3)c2cc1NC(=O)c1cccnc1C [Example 195]
Q = COc1cc2ncnc(-c3cn(C)nc3-c3ccccc3)c2cc1NC(=O)c1c(Cl)cccc1Cl [Example 231]
R = CCC(=O)Nc1cc2c(-c3cnn(C4COC4)c3-c3ccccc3)ncnc2cc1OC [Example 499]
S = COc1cc2ncnc(-c3cn(C)nc3-c3ccccc3)c2cc1NC(=O)c1cnn(C)c1 [Example 294]
T = COc1cc2ncnc(-c3cn(C)nc3-c3ccccc3)c2nc1NC(=O)C1(F)CCN(C)C1 (stereo not drawn) [Example 433]
Exam item: list the entries in increasing order of IC50. When ranking, write the labels in the order the request describes.
Marked response: S, Q, P, R, T
(S: 1 nM, Q: 1.5 nM, P: 3.8 nM, R: 17 nM, T: 24.9 nM)

A = COc1cc2ncnc(-c3cn(C)nc3-c3ccc(F)cc3F)c2nc1NC(=O)[C@@]12C[C@@H]1CN(C)C2 (single isomer, unassigned) [Example 423]
B = CCn1ncc(-c2ncnc3cc(-c4cnn(C)c4)ccc23)c1-c1ccccc1 [Example 495]
Exam item: Return label of the item with the larger IC50. Candidates: A , B . Reply briefly: the label of your chosen item.
Marked response: A
(A: 4.1 nM, B: 1.2 nM)

P = COc1cc2ncnc(-c3cn(C)nc3-c3ccccc3)c2nc1O[C@@H](C)c1cocn1 [Example 39]
Q = C[C@H](O)c1cc2c(-c3cn(CC(F)F)nc3-c3ccccc3)ncnc2cc1O[C@H]1CCOC1 (single isomer, unassigned) [Example 117]
Exam item: For P and Q , which recorded IC50 is lower? Reply briefly: the label of your chosen item.
Marked response: Q
(Q: 1.9 nM, P: 3.5 nM)
